Catalogue of CMC values
Experiment: Critical micellar concentration by phase partitioning of phenylnaphthylamine
Type: physicochemical
Conditions: free fatty acids diluted into assembly buffer
Value expressed in mM; do not type the unit.

The cases that follow already have their CMC on record.
* CCCCC/C=C\C/C=C\CCCCCCCC(=O)O [9,12-linoleic acid (18:2), 9,12-linoleic acid] | 0.21
* CCCCCCCC/C=C\CCCCCCCC(=O)O [9-oleic acid (18:1), 9-oleic acid] | 0.59
* CCCCCC/C=C\CCCCCCCC(=O)O [9-palmitoleic acid (16:1), 9-palmitoleic acid] | 0.44

Please report the recorded CMC for CCCCCC=CCC=CCC=CCC=CCCCC(=O)O [5,8,11,14-eicosatetraenoic acid (20:4), 5,8,11,14-eicosatetraenoic acid] .
0.16

Taken from patent US6458847B1.
